# credit: patent US20150315211A1

biological target: MCL-1ΔNΔC (Homo sapiens, UniProt Q07820); assay: High-throughput competitive FP binding screen, FITC-MCL-1 SAHB/MCL-1ΔNΔC interaction; parameters: the C-terminal alpha-helix was deleted from each of these constructs; GST (N, cleaved yes); made in house; conditions: FITC-MCL-1 SAHB/MCL-1ΔNΔC interaction pair, competitive FP screen
Sequence (Q07820 172-320 limits assumed, stated change not applied): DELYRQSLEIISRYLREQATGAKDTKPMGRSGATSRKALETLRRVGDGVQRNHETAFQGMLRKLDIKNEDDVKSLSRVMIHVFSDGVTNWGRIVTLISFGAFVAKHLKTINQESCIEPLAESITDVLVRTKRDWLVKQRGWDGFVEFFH
Dear colleague, classification is by MCL-1% Bound, with ranges listed here: Low = under 30%, Mid = from 30% up to 40%, High = 40% and over

CC(C)(C)c1cc(O)c2oc(=O)c(-c3nc(-c4ccccc4F)no3)cc2c1    Low
Cc1ccc(NCc2n[nH]c(=S)n2-c2ccccc2)cc1    High
CCOC(=O)C1=C(Nc2cccc(Cl)c2)S/C(=C\c2ccco2)C1=O    High
O=c1cc(-c2ccccc2)oc2cc(O)c(O)c(O)c12 [Baicailen, reference compound]    Low
O=c1oc2c(O)c(O)cc3c(=O)oc4c(O)c(O)cc1c4c23 [drawing 165]    Low

Task: Into which bin does this compound go? `O=S(=O)(Nc1ccc(O)c2ccccc12)c1ccccc1`
Output: Low

Task: Check `Oc1ccc(CNc2ccccc2O)cc1` too.
Output: Mid

Task: Check `CCN(CC)c1ccc2cc(C(N)=O)/c(=N\NC(=O)c3ccccc3)oc2c1` too.
Output: Low

Task: Check `O=C(/C=C/c1ccco1)NC(=S)Nc1ccccc1C(F)(F)F` too.
Output: High
